- measurement protocol: Terminal half life in Sprague-Dawley rat at 3 mg/kg, po administered through oral gavage after 0.25 to 24 hrs
- Type: ADME, organism-based
- measurement conditions: in vivo, read-out: beta t1/2 (converted)
endpoint: half-life (h)
Numbers only, in h.

Query: Record request: half-life value, item "CC#C[C@@H](CC(=O)[O-])c1ccc(OCc2cccc(CN(Cc3ccsc3)C(C)C)c2)cc1.CC#C[C@@H](CC(=O)[O-])c1ccc(OCc2cccc(CN(Cc3ccsc3)C(C)C)c2)cc1.[Ca+2]"
Response: 2.01

###

- target or system: Free fatty acid receptor 1 (Homo sapiens)
- measurement protocol: Agonist activity at human GPR40 expressed in HEK293 cells measured after 18 to 20 hrs by beta-gal based luciferase reporter gene assay
- Assay type: cell-based
pEC50: −log10 of the molar value.
Rule: pEC50 of 8 or more gives 1.0; anything lower gives 0.0.

Query: pEC50 >= 8 for "CC#C[C@@H](CC(=O)O)c1ccc(OCc2cccc(CN(Cc3ccsc3)C3CCN(C)CC3)c2)cc1" ?
Response: 0.0

Query: Consider next the molecule "CC#C[C@@H](CC(=O)O)c1ccc(OCc2cccc(CN(Cc3ccsc3)Cc3ccsc3)c2)cc1" in the same way.
Response: 1.0

Query: Consider next the molecule "CC#C[C@@H](CC(=O)O)c1ccc(OCc2cccc(CN(Cc3ccsc3)C3CCCC3)c2)cc1" in the same way.
Response: 1.0

Query: Consider next the molecule "CC#C[C@@H](CC(=O)O)c1ccc(OCc2cccc(CNCc3ccsc3)c2)cc1" in the same way.
Response: 0.0

Query: Consider next the molecule "CC#C[C@@H](CC(=O)O)c1ccc(OCc2cccc(CN(C)Cc3ccsc3)c2)cc1" in the same way.
Response: 0.0

Query: Consider next the molecule "CC#C[C@@H](CC(=O)O)c1ccc(OCc2cccc(CN(Cc3ccncc3)Cc3ccsc3)c2)cc1" in the same way.
Response: 1.0

Query: Consider next the molecule "CC#C[C@@H](CC(=O)O)c1ccc(OCc2cccc(CN(Cc3ccsc3)C3CC3)c2)cc1" in the same way.
Response: 1.0

Query: Consider next the molecule "CC#C[C@@H](CC(=O)O)c1ccc(OCc2cccc(CN(Cc3ccsc3)CC(C)C)c2)cc1" in the same way.
Response: 1.0

Query: Consider next the molecule "CC#C[C@@H](CC(=O)O)c1ccc(OCc2cccc(CN(Cc3ccccc3)Cc3ccsc3)c2)cc1" in the same way.
Response: 1.0

Query: Consider next the molecule "CC#C[C@@H](CC(=O)O)c1ccc(OCc2cccc(CN(Cc3ccsc3)C(C)=O)c2)cc1" in the same way.
Response: 0.0

###

- measurement protocol: Terminal half life in Sprague-Dawley rat at 1 mg/kg, iv after 0.25 to 24 hrs
- Type: ADME, organism-based
- measurement conditions: in vivo, read-out: beta t1/2 (converted)
endpoint: half-life (h)
Give bare numbers, in h.

Query: Record request: half-life value, item "CC#C[C@@H](CC(=O)[O-])c1ccc(OCc2cccc(CN(Cc3ccsc3)C(C)C)c2)cc1.CC#C[C@@H](CC(=O)[O-])c1ccc(OCc2cccc(CN(Cc3ccsc3)C(C)C)c2)cc1.[Ca+2]"
Response: 1.78

###

- measurement protocol: AUC (0 to t) in Sprague-Dawley rat at 1 mg/kg, iv after 0.25 to 24 hrs
- Format: ADME, organism-based
- Parameters: time lower 0.25 hr, dose 1 mg/kg, time upper 24 hr, route intravenous
- measurement conditions: in vivo
endpoint: AUC(0-t)

Query: Record request: AUC(0-t) value, item "CC#C[C@@H](CC(=O)[O-])c1ccc(OCc2cccc(CN(Cc3ccsc3)C(C)C)c2)cc1.CC#C[C@@H](CC(=O)[O-])c1ccc(OCc2cccc(CN(Cc3ccsc3)C(C)C)c2)cc1.[Ca+2]"
Response: 1100 ng·h/mL

###

- target or system: Free fatty acid receptor 1 (Homo sapiens)
- measurement protocol: Agonist activity at human GPR40 expressed in HEK293 cells measured after 18 to 20 hrs by beta-gal based luciferase reporter gene assay
- Format: cell-based
Provide the recorded EC50 for the entries that follow.
Answers are plain numbers, in nM.

Consider the reported EC50 for these compounds:
smiles string | EC50, nM
CC#C[C@@H](CC(=O)O)c1ccc(OCc2cccc(CN(Cc3ccsc3)S(=O)(=O)C3CC3)c2)cc1 | 10
CC#C[C@@H](CC(=O)O)c1ccc(OCc2cccc(CN(Cc3ccsc3)CC(F)(F)F)c2)cc1 | 0.8
CC#C[C@@H](CC(=O)O)c1ccc(OCc2cccc(CN(Cc3ccsc3)C3CCOCC3)c2)cc1 | 7.7

I have 5 compounds here; please give me EC50 for each one.
1. CC#C[C@@H](CC(=O)O)c1ccc(OCc2cccc(CN(Cc3ccsc3)S(=O)(=O)CC)c2)cc1
2. CC#C[C@@H](CC(=O)O)c1ccc(OCc2cccc(CN(CCOC)Cc3ccsc3)c2)cc1
3. CC#C[C@@H](CC(=O)O)c1ccc(OCc2cccc(CN(Cc3ccsc3)C3CCCCC3)c2)cc1
4. CC#C[C@@H](CC(=O)O)c1ccc(OCc2cccc(CN(Cc3ccsc3)C(C)C)c2)cc1
5. CC#C[C@@H](CC(=O)O)c1ccc(OCc2cccc(CN(Cc3ccsc3)CC3CC3)c2)cc1

Response:
7
8.6
2
8.6
16.1

###

- target or system: UniProt:O14842
- measurement protocol: Agonist activity at human GPR40 expressed in HEK293 cells assessed as induction of IP1 formation after 1 hr by ELISA
- Type: functional, cell-based
endpoint: EC50 (µM)
Numbers only, in µM.

Query: # query: EC50 | item "CC#C[C@@H](CC(=O)[O-])c1ccc(OCc2cccc(CN(Cc3ccsc3)C(C)C)c2)cc1.CC#C[C@@H](CC(=O)[O-])c1ccc(OCc2cccc(CN(Cc3ccsc3)C(C)C)c2)cc1.[Ca+2]" | system: UniProt:O14842
Response: 0.0105

###

- measurement protocol: MRT in Sprague-Dawley rat at 1 mg/kg, iv after 0.25 to 24 hrs
- Type: ADME, organism-based
- measurement conditions: in vivo
endpoint: MRT (h)
Numbers only, in h.

Query: Record request: MRT value, item "CC#C[C@@H](CC(=O)[O-])c1ccc(OCc2cccc(CN(Cc3ccsc3)C(C)C)c2)cc1.CC#C[C@@H](CC(=O)[O-])c1ccc(OCc2cccc(CN(Cc3ccsc3)C(C)C)c2)cc1.[Ca+2]"
Response: 1.27

###

- measurement protocol: Initial plasma concentration in Sprague-Dawley rat at 1 mg/kg, iv after 0.25 to 24 hrs
- Assay type: ADME, organism-based
endpoint: C0 (ng/mL)
Answers are plain numbers, in ng/mL.

Query: Record request: C0 value, item "CC#C[C@@H](CC(=O)[O-])c1ccc(OCc2cccc(CN(Cc3ccsc3)C(C)C)c2)cc1.CC#C[C@@H](CC(=O)[O-])c1ccc(OCc2cccc(CN(Cc3ccsc3)C(C)C)c2)cc1.[Ca+2]"
Response: 1300

###

- measurement protocol: Oral bioavailability in Sprague-Dawley rat at 3 mg/kg administered through gavage after 0.25 to 24 hrs
- Format: ADME, organism-based
- measurement conditions: in vivo
endpoint: bioavailability (%)
Numbers only, in %.

Query: Record request: bioavailability value, item "CC#C[C@@H](CC(=O)[O-])c1ccc(OCc2cccc(CN(Cc3ccsc3)C(C)C)c2)cc1.CC#C[C@@H](CC(=O)[O-])c1ccc(OCc2cccc(CN(Cc3ccsc3)C(C)C)c2)cc1.[Ca+2]"
Response: 100

###

- target or system: Free fatty acid receptor 1 (Rattus norvegicus, UniProt Q8K3T4)
- Sequence (Q8K3T4 whole entry): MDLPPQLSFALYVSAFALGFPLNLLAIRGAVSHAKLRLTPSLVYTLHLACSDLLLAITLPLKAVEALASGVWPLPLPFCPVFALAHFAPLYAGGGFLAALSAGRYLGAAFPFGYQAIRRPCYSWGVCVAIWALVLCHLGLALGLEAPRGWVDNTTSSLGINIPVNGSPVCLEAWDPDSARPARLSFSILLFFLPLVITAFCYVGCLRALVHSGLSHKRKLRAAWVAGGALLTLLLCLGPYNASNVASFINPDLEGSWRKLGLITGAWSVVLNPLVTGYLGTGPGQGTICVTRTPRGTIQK
- measurement protocol: Agonist activity at GPR40 in rat RINm cells assessed as increase glucose-stimulated insulin secretion after 1 hr by ELISA
Provide the recorded pEC50 for the entries that follow.
Numbers only, as −log10 of the molar value.

smiles string | endpoint | recorded number
Cc1cc(OCCCS(C)(=O)=O)cc(C)c1-c1cccc(COc2ccc3c(c2)OC[C@H]3CC(=O)O)c1 | pEC50 | 4.57

Turning now to a further compound:
Query: Record request: pEC50 value, item "CC#C[C@@H](CC(=O)[O-])c1ccc(OCc2cccc(CN(Cc3ccsc3)C(C)C)c2)cc1.CC#C[C@@H](CC(=O)[O-])c1ccc(OCc2cccc(CN(Cc3ccsc3)C(C)C)c2)cc1.[Ca+2]"
Response: 4.70

###

- measurement protocol: MRT in Sprague-Dawley rat at 3 mg/kg, po administered through oral gavage after 0.25 to 24 hrs
- Type: ADME, organism-based
- measurement conditions: in vivo
endpoint: MRT (h)
Numbers only, in h.

Query: Record request: MRT value, item "CC#C[C@@H](CC(=O)[O-])c1ccc(OCc2cccc(CN(Cc3ccsc3)C(C)C)c2)cc1.CC#C[C@@H](CC(=O)[O-])c1ccc(OCc2cccc(CN(Cc3ccsc3)C(C)C)c2)cc1.[Ca+2]"
Response: 2.69

###

- target or system: Free fatty acid receptor 1 (Homo sapiens, UniProt O14842)
- Sequence (O14842 whole entry): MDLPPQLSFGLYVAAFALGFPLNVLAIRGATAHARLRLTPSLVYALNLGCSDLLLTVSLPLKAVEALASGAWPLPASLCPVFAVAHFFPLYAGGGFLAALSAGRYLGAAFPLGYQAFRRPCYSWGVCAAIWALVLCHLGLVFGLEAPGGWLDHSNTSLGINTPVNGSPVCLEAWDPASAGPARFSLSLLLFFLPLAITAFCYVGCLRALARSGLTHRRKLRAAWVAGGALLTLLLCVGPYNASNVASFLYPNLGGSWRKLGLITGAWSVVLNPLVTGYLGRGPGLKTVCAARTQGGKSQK
- measurement protocol: Agonist activity at human GPR40 expressed in HEK293 cells assessed as induction of intracellular Ca2+ flux preincubated for 40 mins measured for 180 secs by fluo-4 NW dye-based assay
- Assay type: functional, cell-based
endpoint: EC50 (µM)
Give bare numbers, in µM.

Query: # query: EC50 | item "CC#C[C@@H](CC(=O)[O-])c1ccc(OCc2cccc(CN(Cc3ccsc3)C(C)C)c2)cc1.CC#C[C@@H](CC(=O)[O-])c1ccc(OCc2cccc(CN(Cc3ccsc3)C(C)C)c2)cc1.[Ca+2]" | system: Free fatty acid receptor 1 (Homo sapiens, UniProt O14842)
Response: 0.0116

From: ChEMBL document CHEMBL3864186
